Target: Adenosine A2 receptor (Rattus norvegicus, UniProt P29276+P30543)
OBSERVED_PROPERTY: Ki (nM)

In the examples that follow, each entry is paired with its recorded Ki.
- COMPOUND: "OC[C@H]1OC(n2cnc3c(NCCC(c4ccccc4)c4ccccc4)ncnc32)[C@H](O)[C@@H]1O (some centres undefined)"
  QUANTITATIVE_RESULT: 290
- COMPOUND: "OC[C@H]1O[C@@H](n2cnc3c(NCCCc4ccccc4)ncnc32)[C@H](O)[C@@H]1O"
  QUANTITATIVE_RESULT: 420
- COMPOUND: "OC[C@H]1OC(n2cnc3c(NC(c4ccccc4)c4ccccc4)ncnc32)[C@H](O)[C@@H]1O (some centres undefined)"
  QUANTITATIVE_RESULT: 3800

I: OC[C@H]1OC(n2cnc3c(NCCCCC(c4ccccc4)c4ccccc4)ncnc32)[C@H](O)[C@@H]1O (some centres undefined)
II: OC[C@H]1O[C@@H](n2cnc3c(Nc4ccccc4)ncnc32)[C@H](O)[C@@H]1O
III: OC[C@H]1O[C@@H](n2cnc3c(NCCCCc4ccccc4)ncnc32)[C@H](O)[C@@H]1O
Prompt: Which order do these items take when sorted by rising Ki? List them. Answer by writing out the labels in the requested order.
Completion: II, III, I
(II: 660 nM, III: 1230 nM, I: 2200 nM)

a: CC(C)(CNc1ncnc2c1ncn2C1O[C@H](CO)[C@@H](O)[C@H]1O)c1ccccc1 (some centres undefined)
b: OC[C@H]1O[C@@H](n2cnc3c(NCC(c4ccccc4)c4ccccc4)ncnc32)[C@H](O)[C@@H]1O
Prompt: Endpoint returns the identifier whose Ki is numerically larger, either a or b . Please respond with the label that marks your chosen entry.
Completion: a

The values you see were collected from ChEMBL document CHEMBL1123600.
